Where these numbers come from: patent US20240084003A1

# Measured on: T1, human CD22-ECD-His protein (human, UniProt P20273 20-687)
# T1 construct: Recombinant, from HEK293E cells; also called hCD22-ECD-His; human CD22-His protein; not shown: His tag
# T1 sequence: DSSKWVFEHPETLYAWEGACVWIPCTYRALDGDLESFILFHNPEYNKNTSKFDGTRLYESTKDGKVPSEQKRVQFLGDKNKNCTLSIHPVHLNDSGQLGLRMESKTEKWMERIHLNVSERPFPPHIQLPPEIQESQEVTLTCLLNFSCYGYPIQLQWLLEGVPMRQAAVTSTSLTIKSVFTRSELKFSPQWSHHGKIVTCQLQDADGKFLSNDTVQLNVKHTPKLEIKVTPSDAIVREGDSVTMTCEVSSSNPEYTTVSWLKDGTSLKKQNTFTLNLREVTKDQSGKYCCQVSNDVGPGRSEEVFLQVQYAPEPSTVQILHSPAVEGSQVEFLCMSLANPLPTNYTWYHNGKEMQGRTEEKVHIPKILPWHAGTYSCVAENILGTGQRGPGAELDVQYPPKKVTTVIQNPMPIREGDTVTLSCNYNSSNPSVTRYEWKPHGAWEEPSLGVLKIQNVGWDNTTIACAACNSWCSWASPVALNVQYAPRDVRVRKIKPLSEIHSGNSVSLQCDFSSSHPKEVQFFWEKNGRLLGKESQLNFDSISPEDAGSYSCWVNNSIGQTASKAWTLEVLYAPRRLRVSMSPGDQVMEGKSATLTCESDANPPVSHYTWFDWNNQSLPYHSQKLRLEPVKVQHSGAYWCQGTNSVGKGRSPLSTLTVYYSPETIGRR
# Assay text: SPR (Biacore), antibody captured on Protein A chip, CD22-ECD-His in solution
Would you kindly list pKd for each of these binders?
// returns pKd (minus log10 of molar concentration), number only

Enquiry: # return recorded pKd for entry F1.231.15 (antibody, IgG1, V domains shown, Chimeric IgG1 kappa) VH: QVQLQQPGAELVKPGASVKLSCKTSGYTFTIYWMQWVKQRPGRGLEWIGRIDPHSGDTHYNENFTTKVTLTVDETSNTAYMHLSGLTSEDSAVYYCARRDYSYYVLDYWGQGTSVTVSS VL: DVVLTQTPLSLPVSLGDQASISCRSSQSLVHINGDTYLHWYLQKPGQSPKLLIYTVFNRFSGVPDRFSGSGSGTDFTLKISRVEAEDLGAYFCSQSTHVPYTFGGGTKLEIKR
Return: 7.35

Enquiry: Retrieve pKd measured for F1.245.2 (antibody, human IgG1, kappa, V domains shown, Chimeric IgG1 kappa) VH: EVQLQQSGAELVKPGASVKLSCTGSGFNIKDYYIHWVKQRTEQGLEWMGRIDPEDGETEYAPKFQDEATITSDTSSNTAYLQLSSLTYEDTAVYYCAREAAGYFYRGSSYGYFDVWGTGTTVTVSS VL: DFQMTQTTSFLSASLGDRVTISCSASQDISNYLNWYQQKPDGTVKLLIYYTSSLHSGVPSRFSGSGSGTDYSLTISNLEPEDIATYYCQQYSMLPYTFGGGTKLEMER and print it.
Return: 9.34

Enquiry: Please give the documented pKd of F1.280.1 (antibody, human IgG1, kappa, V domains shown, Chimeric IgG1 kappa) VH: QIQLVQSGPELKKPGETVKISCKASGYTFTTYGMSWVKQTPGKGLTWMGWINTDSGVPTYADDFKRRFAFSLEASATTAYLQINNLKNEDTATYFCARGGPDYWGQGTTLTVSS VL: DILLTQSPATLSVTPGETVSLSCRASQSIYKNLHWYHQKSHRSPRLLIKYASDSISGIPSRFTGSGSGTNFTLSINSVKPEDEGIYYCLQGYIVPLTFGAGTKLELKR
Return: 8.17
